System: Charles River CD-1 mice
Assay: Intravenous acute tolerance in mice (LD50)
Settings: intravenous (tail vein) at 0.02 mL/g, CD-1 mice, 14 days observation, physiologic pH
assay-readout: LD50
Returns: string containing the number followed by the unit.

Look over these answered cases.
compound	target-under-test	LD50
[Gd+3].[OH-].[OH-].[OH-]	Charles River CD-1 mice	0.1 mmol/kg
CC(O)CN1CCN(CC(=O)O)CCN(CC(=O)O)CCN(CC(=O)O)CC1.[Gd+3] (stereo not drawn)	Charles River CD-1 mice	10 mmol/kg

Here is the next item to consider.
State its LD50: O=C([O-])CN1CCNCCN(CC(=O)[O-])CCN(CC(=O)[O-])CC1.O=C([O-])CN1CCNCCN(CC(=O)[O-])CCN(CC(=O)[O-])CC1.[Ca+2].[Ca+2].[Ca+2] [Ca[Ca(DO3A)]2]
1.6 mmol/kg
